Test system: aphids
Test: Biological Test On Aphid (spray on cabbage leaf in Petri dish)
Assay type: in vivo
Conditions: 2nd replicate; 20 aphids on cabbage leaf; 9.6% w/w pesticide reagent diluted 1000 times with water, sprayed; examined 24 hours later
Procedure: The compound obtained from Example 1 was mixed with a solvent to form a 9.6% w/w pesticide reagent. An 8 cm×8 cm piece of clean cabbage leaf was placed on a lump of wet cotton in a Petri dish, and then 20 aphids were put on the cabbage leaf in the Petri dish. […] The number of dead aphids was examined 24 hours later, and the kill ratio was calculated. […]
What Number of dead aphids 2nd was measured for each of the following?
Numbers only.

Sample answers from the record:
| COMPOUND | TGT | QUANTITY MEASURED | READOUT VALUE |
| --- | --- | --- | --- |
| CC(C)Oc1ccccc1OCc1ccc(Cl)nc1 | aphids | Number of dead aphids 2nd | 19 |
| CSc1c(C)cc(OCc2ccc(Cl)nc2)cc1C | aphids | Number of dead aphids 2nd | 19 |
| CS/C(C)=N/OCc1ccc(Cl)nc1 | aphids | Number of dead aphids 2nd | 17 |

Hi team, please reply with Number of dead aphids 2nd for each item in this list.
1. Clc1ccc(COc2cccc3ccccc23)cn1
2. N#CNCc1ccc(Cl)nc1 [Example 9, 6-chloro-pyridin-3-ylmethyl-cyanamide]
3. CC1(C)Cc2cccc(OCc3ccc(Cl)nc3)c2O1
4. O=[N+]([O-])/N=C1\NCCN1Cc1ccc(Cl)nc1 [Comparative Example 1, imidachloprid, reference compound]
5. CNC(=O)Nc1nc2ccccc2n1Cc1ccc(Cl)nc1
6. CNC(=O)Nc1nc2ccccc2n1Cc1csc(Cl)n1

1: 17; 2: 19; 3: 16; 4: 17; 5: 17; 6: 16
